Values compiled from paper PMC9369794.

Where a name gives a salt, the structure may show the parent alone.
measurement.label: melting point

Worked examples, 5 molecules total:
COc1ccc2[nH]cc(CCNC(=O)CNC(=O)CCC(=O)O[C@@H]3CC(C)=C(/C=C/C(C)=C/C=C/C(C)=C/C=C/C=C(C)/C=C/C=C(C)/C=C/C4=C(C)C[C@@H](O)CC4(C)C)C(C)(C)C3)c2c1 [Compound 13, Zeaxanthin-monomelatonin conjugate] ... 156 to 157 °C
CC1=C(/C=C/C(C)=C/C=C/C(C)=C/C=C/C=C(C)/C=C/C=C(C)/C=C/C(=O)[C@]2(C)C[C@@H](OC(=O)CCC(=O)O)CC2(C)C)C(C)(C)C[C@H](OC(=O)CCC(=O)O)C1 (as salt: succinate) [Compound 9, Capsanthin bissuccinate] ... 143 to 144 °C
CC1=C(/C=C/C(C)=C/C=C/C(C)=C/C=C/C=C(C)/C=C/C=C(C)/C=C/C2=C(C)C[C@@H](OC(=O)CCC(=O)O)CC2(C)C)C(C)(C)C[C@H](OC(=O)CCC(=O)O)C1 (as salt: succinate) [Compound 7, Zeaxanthin bissuccinate] ... 152 to 153 °C
CC1=C[C@H](OC(=O)CCC(=O)O)CC(C)(C)[C@H]1/C=C/C(C)=C/C=C/C(C)=C/C=C/C=C(C)/C=C/C=C(C)/C=C/C1=C(C)C[C@@H](OC(=O)CCC(=O)O)CC1(C)C (as salt: succinate) [Compound 10, Lutein bissuccinate] ... 148 to 149 °C
CC1=C(/C=C/C(C)=C/C=C/C(C)=C/C=C/C=C(C)/C=C/C=C(\C)COC(=O)CCC(=O)O)C(C)(C)CCC1 (as salt: succinate) [Compound 6, 8′-Apo-β-carotenol succinate] ... 123 to 124 °C

Q: Can you share its melting point? I mean this molecule: COc1ccc2[nH]cc(CCNC(=O)CNC(=O)CCC(=O)OC/C(C)=C/C=C/C(C)=C/C=C/C=C(C)/C=C/C=C(C)/C=C/C3=C(C)CCCC3(C)C)c2c1 [Compound 18, 8′-Apo-β-carotenol-melatonin conjugate]
Ans: 123 to 124 °C

Q: Lookup COc1ccc2[nH]cc(CCNC(=O)CNC(=O)CCC(=O)O[C@@H]3CC(C)=C(/C=C/C(C)=C/C=C/C(C)=C/C=C/C=C(C)/C=C/C=C(C)/C=C/C4=C(C)CCCC4(C)C)C(C)(C)C3)c2c1 [Compound 15, Cryptoxanthin-melatonin conjugate]
Ans: 153 to 154 °C

Q: Lookup CC1=C(/C=C/C(C)=C/C=C/C(C)=C/C=C/C=C(C)/C=C/C=C(C)/C=C/C2=C(C)C[C@@H](OC(=O)CCC(=O)O)CC2(C)C)C(C)(C)CCC1 (as salt: succinate) [Compound 8, β-Cryptoxanthin succinate]
Ans: 142 to 143 °C

###

Experiment: Hydrodynamic diameter and colloidal stability of aggregates by dynamic light scattering
Assay type: physicochemical
Details: 2.5 μM in PBS from DMSO stock, 37 °C
measurement.label: zeta potential (mV)

Worked examples, 2 compounds total:
COc1ccc2[nH]cc(CCNC(=O)CNC(=O)CCC(=O)O[C@@H]3CC(C)=C(/C=C/C(C)=C/C=C/C(C)=C/C=C/C=C(C)/C=C/C=C(C)/C=C/C4=C(C)CCCC4(C)C)C(C)(C)C3)c2c1 [Compound 15, Cryptoxanthin-melatonin conjugate] ... −20.4
CC1=C(/C=C/C(C)=C/C=C/C(C)=C/C=C/C=C(C)/C=C/C=C(C)/C=C/C2=C(C)C[C@@H](OC(=O)CCC(=O)O)CC2(C)C)C(C)(C)CCC1 [Compound 8, β-Cryptoxanthin succinate] ... 17.6

I = CC1=C(/C=C/C(C)=C/C=C/C(C)=C/C=C/C=C(C)/C=C/C=C(\C)COC(=O)CCC(=O)O)C(C)(C)CCC1 [Compound 6, 8′-Apo-β-carotenol succinate]
II = COc1ccc2[nH]cc(CCNC(=O)CNC(=O)CCC(=O)O[C@@H]3CC(C)=C(/C=C/C(C)=C/C=C/C(C)=C/C=C/C=C(C)/C=C/C=C(C)/C=C/C4=C(C)C[C@@H](O)CC4(C)C)C(C)(C)C3)c2c1 [Compound 13, Zeaxanthin-monomelatonin conjugate]
Q: Could you kindly indicate whether I or II has the higher zeta potential value? Lab log: write the label of the selected item as the result.
Ans: II
